Target entity: tankyrase 2 (TNKS 2) (Homo sapiens, UniProt Q9H2K2)
Construct: 613-1, 116aa; made in house; host or cells: cell-free protein synthesis system
Sequence (Q9H2K2 613-1166): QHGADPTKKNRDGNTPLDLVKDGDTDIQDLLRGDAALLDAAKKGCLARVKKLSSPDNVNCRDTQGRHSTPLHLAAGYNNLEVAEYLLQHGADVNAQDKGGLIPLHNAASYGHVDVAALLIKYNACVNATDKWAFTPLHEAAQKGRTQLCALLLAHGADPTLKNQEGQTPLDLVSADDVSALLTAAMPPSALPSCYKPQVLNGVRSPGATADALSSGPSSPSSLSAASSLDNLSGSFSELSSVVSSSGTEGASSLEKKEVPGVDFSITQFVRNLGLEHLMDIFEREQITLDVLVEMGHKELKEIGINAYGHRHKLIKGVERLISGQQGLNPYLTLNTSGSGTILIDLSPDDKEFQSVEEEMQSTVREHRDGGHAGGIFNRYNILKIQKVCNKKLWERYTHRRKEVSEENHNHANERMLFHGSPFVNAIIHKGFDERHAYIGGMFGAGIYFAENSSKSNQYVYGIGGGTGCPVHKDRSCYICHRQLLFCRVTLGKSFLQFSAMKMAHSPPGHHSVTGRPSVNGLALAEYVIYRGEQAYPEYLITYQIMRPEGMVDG
Assay notes: Tankyrase inhibitory activity test (ELISA, self-polyADP ribosylation), tankyrase 2
Assay type: biochemical
Reported conditions: tankyrase 2, ELISA, self-polyADP ribosylation; read-out: TNKS2 inhibitory activity (IC50 class)
Assay metric: IC50

Consider the reported IC50 for these molecules:
structure_as_smiles=CN1CCCc2c1nc(N1CCC3(CC1)C(=O)N(C)c1c(C(N)=O)ccc(Cl)c13)[nH]c2=O assay_metric=IC50 reported_result="< 0.02 µM"
structure_as_smiles=CN1CCCc2c1nc(N1CCC3(CC1)C(=O)N(C)c1c(C#N)ccc(Cl)c13)[nH]c2=O assay_metric=IC50 reported_result="< 0.02 µM"
structure_as_smiles=CN1CCCc2c1nc(N1CCC3(CC1)C(=O)N(CCO)c1cc(OCCO)cc(F)c13)[nH]c2=O assay_metric=IC50 reported_result="< 0.02 µM"

Field request: IC50 | item: `CN1C(=O)C2(CCN(c3nc4c(c(=O)[nH]3)CCCC4)CC2)c2c(Cl)cc(OCCCN3CCOCC3)cc21`
< 0.02 µM

Param item: `Cn1ccc2c(=O)[nH]c(N3CCC4(CC3)CN(Cc3cccnc3)c3cc(F)cc(F)c34)nc21`
0.02 to 0.2 µM

Param item: `COc1cccc(CN2CC3(CCN(c4nc5c(c(=O)[nH]4)CCCC5)CC3)c3ccccc32)c1`
< 0.02 µM

Param item: `CN(C)CCOc1cc(F)c2c(c1)N(C)C(=O)C21CCN(c2nc3c(c(=O)[nH]2)CCCN3C)CC1`
< 0.02 µM

Param item: `CN1CCCc2c1nc(N1CCC3(CC1)C(=O)N(C)c1cc(OCCN4CCCCC4)cc(Cl)c13)[nH]c2=O`
< 0.02 µM

Param item: `O=c1[nH]c(N2CCC3(CC2)CN(Cc2ccccn2)c2cc(F)cc(F)c23)nc2c1CCCC2`
< 0.02 µM

Param item: `COc1cc(F)c2c(c1)N(CC#N)C(=O)C21CCN(c2nc3c(c(=O)[nH]2)CCCN3C)CC1`
< 0.02 µM

Param item: `O=c1[nH]c(N2CCC3(CC2)CN(Cc2cccnc2)c2ccccc23)nc2c1CCCC2`
0.02 to 0.2 µM

Param item: `O=C1N(Cc2cccnc2)c2cc(F)cc(F)c2C12CCN(c1nc3c(c(=O)[nH]1)CCCC3)CC2`
< 0.02 µM

Param item: `O=c1[nH]c(N2CCC3(CC2)CN(Cc2cccnc2)c2cc(Cl)ccc23)nc2c1CCCC2`
< 0.02 µM

Param item: `CN1CCCc2c1nc(N1CCC3(CC1)C(=O)N(C)c1cc(-c4nc(CN5CCCC5)co4)cc(Cl)c13)[nH]c2=O`
0.02 to 0.2 µM

Param item: `O=c1[nH]c(N2CCC3(CC2)CN(Cc2ncccn2)c2cc(F)cc(F)c23)nc2c1CCCC2`
< 0.02 µM
